molecular target: Genome polyprotein (dengue virus type 2); assay: Inhibition of NS2B-NS3 protease in DENV2proHeLa system assessed as inhibition of luciferase signal incubated for 24 hrs by luciferase reporter gene assay
Below, each entry is listed alongside its reported EC50.
Endpoint label: EC50 (nM)

Smiles code | Recorded value
NC(=O)c1ccc(CNC(=O)[C@@H](NC(=O)c2ccc(-c3cccs3)s2)c2ccc(OCc3ccccc3)cc2)cc1 | 6200
NC(=O)c1cccc(NC(=O)[C@@H](NC(=O)c2cccc(Oc3ccccc3)c2)c2ccc(OCc3ccccc3)cc2)c1 | 1700
CCCCCC(=O)N[C@H](C(=O)NCc1ccc(C(N)=O)cc1)c1ccc(OCc2c(Cl)cccc2Cl)cc1 | 8300
NC(=O)c1ccc(CNC(=O)[C@@H](NC(=O)c2ccc(Oc3ccccc3)cc2)c2ccc(OCc3ccccc3)cc2)cc1 | 1000
NC(=O)c1cccc(NC(=O)[C@@H](NC(=O)c2ccc(Oc3cccc(Cl)c3)cc2)c2ccc(OCc3ccccc3)cc2)c1 | 1000

###

target: Genome polyprotein (dengue virus type 2); assay: Inhibition of NS2B-NS3 protease in DENV2proHeLa system assessed as inhibition of luciferase signal at 12.5 uM incubated for 24 hrs by luciferase reporter gene assay; format: cell-based; conditions: HeLa
Endpoint label: inhibition (%)

Compound | Endpoint label | Unit text | Recorded value
CCCCCC(=O)N[C@H](C(=O)NCc1ccc(NC(C)=O)cc1)c1ccc(OCc2ccccc2)cc1 | inhibition | % | 55
CCCCCC(=O)N[C@H](C(=O)N1CCCCC1)c1ccc(OCc2ccccc2)cc1 | inhibition | % | 58
NC(=O)c1cccc(NC(=O)[C@@H](NC(=O)c2ccc(-c3cncnc3)cc2)c2ccc(OCc3ccccc3)cc2)c1 | inhibition | % | 59
CCCCCCC(=O)N[C@H](C(=O)NCc1ccc(C(N)=O)cc1)c1ccc(OCc2ccccc2)cc1 | inhibition | % | 52
CCCCCCCS(=O)(=O)N[C@H](C(=O)NCc1ccc(C(N)=O)cc1)c1ccc(OCc2ccccc2)cc1 | inhibition | % | 47
CCCCCC(=O)N[C@H](C(=O)NCC1CCC(C(N)=O)CC1)c1ccc(OCc2ccccc2)cc1 (stereo partly specified) | inhibition | % | 29
